inhibition for assorted molecules
# testedSystem: Cytochrome P450 2C9 (Homo sapiens) (UniProt P11712)
# Sequence (P11712 whole entry, looked up): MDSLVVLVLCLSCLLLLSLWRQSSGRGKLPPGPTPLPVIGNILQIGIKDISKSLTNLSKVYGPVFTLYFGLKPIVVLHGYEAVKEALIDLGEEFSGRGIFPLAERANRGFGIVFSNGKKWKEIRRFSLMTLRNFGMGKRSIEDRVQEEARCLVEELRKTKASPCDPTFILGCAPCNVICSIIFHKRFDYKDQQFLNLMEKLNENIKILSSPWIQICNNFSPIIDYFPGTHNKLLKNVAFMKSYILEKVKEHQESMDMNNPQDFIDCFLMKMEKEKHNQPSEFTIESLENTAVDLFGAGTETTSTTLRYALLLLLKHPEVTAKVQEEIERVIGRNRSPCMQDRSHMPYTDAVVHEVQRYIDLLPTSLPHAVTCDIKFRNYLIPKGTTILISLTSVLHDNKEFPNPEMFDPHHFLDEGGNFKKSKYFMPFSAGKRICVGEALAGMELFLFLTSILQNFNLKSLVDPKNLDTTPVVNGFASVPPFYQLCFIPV
# experimentalDetails: blockers of cytochrome P450 2C9 activity – biochemical, luminescence, ADME assay, primary screen (AID 777)
# conditions: CYP2C9 Supersomes, luciferin-H conversion, at 5 µM, stronger effect = higher value
The campaign covered roughly 96,000 compounds. About 19,000 (20%) were called active. The list is a sample of the results.
readout: inhibition (%)

[[record]]
molecule = "Cc1ccc(N(CC(=O)Nc2cc(C)cc(C)c2)S(=O)(=O)c2cccc3nonc23)cc1"
testvalue = 48.7

[[record]]
molecule = "Cc1noc(C)c1S(=O)(=O)N(CC(=O)Nc1ccc2c(c1)OCCO2)c1ccc(C(C)C)cc1"
testvalue = 72.5

[[record]]
molecule = "COC(=O)c1ccc(NC(=O)CN(c2ccc(C)cc2)S(=O)(=O)c2c(C)n[nH]c2C)cc1"
testvalue = 91.4

[[record]]
molecule = "COC(=O)c1cc(S(=O)(=O)NC2CCN(Cc3ccccc3)CC2)cn1C"
testvalue = -9.6

[[record]]
molecule = "CCOC(=O)c1cc2ccccc2nc1C"
testvalue = -27.3

[[record]]
molecule = "O=[N+]([O-])c1ccc(Oc2ccc(F)cc2Br)c2ccncc12"
testvalue = 6.1

[[record]]
molecule = "Cc1cc(NC(=O)c2cnn3cccnc23)n(-c2ccccc2)n1"
testvalue = 32

[[record]]
molecule = "CCOc1ccc(Cn2nnc(C(=O)NCc3ccccc3)c2N)cc1"
testvalue = -2.2

[[record]]
molecule = "O=S(=O)(Nc1ccccn1)c1ccc(Oc2ccccc2)cc1"
testvalue = 81.4

[[record]]
molecule = "Cc1ccc(C)c(NC(=O)c2ccc(OC(=O)c3ccco3)cc2)c1"
testvalue = -24

[[record]]
molecule = "Cc1noc(C)c1S(=O)(=O)N(CC(=O)NCc1ccc(Cl)cc1)c1ccc2c(c1)OCO2"
testvalue = 68.9

[[record]]
molecule = "Cc1cccc(Nc2ccccc2C(=O)NCc2ccco2)c1C"
testvalue = 27.2

[[record]]
molecule = "O=S(=O)(NCC1OCCc2ccccc21)c1ccccc1 (stereo unspecified)"
testvalue = 3

[[record]]
molecule = "O=C(Nc1ccccc1C(F)(F)F)c1cc(-c2ccc(O)cc2)on1"
testvalue = -234

[[record]]
molecule = "O=C(COc1ccccc1Cl)Nn1cnnc1"
testvalue = 7.7

[[record]]
molecule = "O=C(c1ccc(F)cc1)c1c[nH]c(C(=O)NCc2cccnc2)c1"
testvalue = 45.9

[[record]]
molecule = "CCCSc1nsc(N)n1"
testvalue = 16.4

[[record]]
molecule = "COc1ccccc1Oc1ccc(S(=O)(=O)Nc2cccnc2)cc1"
testvalue = 84.9

[[record]]
molecule = "COCCNC(=O)COc1ccccc1C"
testvalue = 4.4

[[record]]
molecule = "FC(F)(F)c1ccc2nnc(-c3c(Cl)cccc3Cl)n2c1"
testvalue = 25.7

[[record]]
molecule = "Cc1noc(C)c1C(=O)NC(C)c1ccc2c(c1)OCO2 (stereo unspecified)"
testvalue = 32.6

[[record]]
molecule = "Cc1ccc(-c2nc(C)sc2CC(=O)O)cc1"
testvalue = 5.6

[[record]]
molecule = "Cn1c(=N)n(CC(O)c2ccccc2)c2ccccc21 (stereo unspecified)"
testvalue = -27.2

[[record]]
molecule = "CCOC(=O)c1cc(-c2ccc(Cl)s2)nc2c1c(C)nn2C"
testvalue = 32.3

[[record]]
molecule = "COc1cc(C(=S)N2CCOCC2)cc(OC)c1OC(=O)c1cc([N+](=O)[O-])cc([N+](=O)[O-])c1"
testvalue = -5

[[record]]
molecule = "COc1ccc2c(c1)CCc1c(C(=O)N3CCCC3)noc1-2"
testvalue = -6.1

[[record]]
molecule = "Cc1ccc(N(Cc2ccc(C(=O)Nc3ccccc3C(=O)NCc3ccco3)cc2)S(C)(=O)=O)cc1C"
testvalue = 72

[[record]]
molecule = "COc1ccc2c(c1)CCc1c(C(=O)Nc3c(C)n(C)n(-c4ccccc4)c3=O)noc1-2"
testvalue = 14

[[record]]
molecule = "Cn1nnnc1SCC(=O)Nc1ccccc1C(=O)NC1CC1"
testvalue = 10.7

[[record]]
molecule = "O=c1c2[nH]c3ccc(Cl)cc3c2ncn1Cc1ccccn1"
testvalue = 17.6

[[record]]
molecule = "CCOC(=O)c1nc(N)sc1C(=O)OCC"
testvalue = 4.2

[[record]]
molecule = "CC1CCN(C(=O)Cn2cc(C(=O)c3ccco3)c3ccccc32)CC1"
testvalue = 28.3

[[record]]
molecule = "Cc1nc(CNS(=O)(=O)c2ccc(Oc3ccccc3)cc2)cs1"
testvalue = 39.1

[[record]]
molecule = "CCc1nnc(NC(=O)c2nc3nccc(C)n3n2)s1"
testvalue = 1.9

[[record]]
molecule = "COc1ccc(C(=O)N2CCc3cc(OC)c(OC)cc3C2c2cccc([N+](=O)[O-])c2)cc1 (stereo unspecified)"
testvalue = 64.4

[[record]]
molecule = "O=c1/c(=C/c2ccc(CNS(=O)(=O)c3ccccc3)o2)sc2n1CCN=2"
testvalue = 71.2

[[record]]
molecule = "CCOC(=O)c1cccc(NC(=O)CN(c2ccc(C)cc2)S(=O)(=O)c2c(C)noc2C)c1"
testvalue = 65.9

[[record]]
molecule = "COCCOCCn1cnc2ccccc21"
testvalue = 0

[[record]]
molecule = "CC1(C)CC(=O)NC=C(c2ccccc2)C1"
testvalue = 11.5

[[record]]
molecule = "O=C(CS(=O)(=O)Cc1ccccc1)Nc1cccnc1"
testvalue = -3.4

[[record]]
molecule = "COc1cc(OC)cc(C(=O)NCCSCc2ccco2)c1"
testvalue = -1.5

[[record]]
molecule = "CCOc1ccc(N(CC(=O)NCc2ccc(OC)cc2)S(=O)(=O)c2c(C)noc2C)cc1"
testvalue = 3.9

[[record]]
molecule = "CS(=O)(=O)N(Cc1ccc(Cl)cc1)c1ccc(C(=O)NCCSCc2ccco2)cc1"
testvalue = 74.1

[[record]]
molecule = "CCOc1ccc(N(CC(=O)OC)S(=O)(=O)c2c(C)noc2C)cc1"
testvalue = 24.4

[[record]]
molecule = "CCN(CC)C(=O)CCC(=O)Nc1ccc(C(=O)OC)cc1"
testvalue = 8.6

[[record]]
molecule = "Cc1ccc(C(=O)N/C(=C/C=C/c2ccccc2)C(=O)NCc2ccco2)cc1"
testvalue = 36

